Entry source: paper PMC4499133

# Assayed target: MtbRho (transcription termination factor Rho) (Mycobacterium tuberculosis, UniProt P9WHF3)
# Sequence (P9WHF3 whole entry): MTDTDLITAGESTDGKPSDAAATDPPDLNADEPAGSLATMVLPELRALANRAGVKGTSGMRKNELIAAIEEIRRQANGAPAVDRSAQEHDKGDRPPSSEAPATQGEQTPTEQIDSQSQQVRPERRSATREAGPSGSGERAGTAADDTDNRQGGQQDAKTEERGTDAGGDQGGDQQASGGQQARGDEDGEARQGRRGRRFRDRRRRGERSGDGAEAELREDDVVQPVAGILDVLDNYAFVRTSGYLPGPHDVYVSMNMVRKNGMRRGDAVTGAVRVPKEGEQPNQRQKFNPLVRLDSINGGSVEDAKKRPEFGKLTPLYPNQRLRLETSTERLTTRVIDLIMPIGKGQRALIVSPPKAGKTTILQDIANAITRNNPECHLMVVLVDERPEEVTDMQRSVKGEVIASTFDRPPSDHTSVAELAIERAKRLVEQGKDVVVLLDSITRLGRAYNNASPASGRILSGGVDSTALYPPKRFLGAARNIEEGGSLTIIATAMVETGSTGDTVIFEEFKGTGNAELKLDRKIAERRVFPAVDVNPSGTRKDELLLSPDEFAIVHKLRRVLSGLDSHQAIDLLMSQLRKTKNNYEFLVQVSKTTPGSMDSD
pIC50: −log10 of the molar value.
Experimental endpoint: pIC50

In [3]: df
Out[3]:
                                   molecule                            assayed_target  value_observed
0  C=C1CCO[C@]2([C@@H](O)[C@@](C)(O)CO)NC(=O)[C@@]1(O)NC2=O [BCM, bicyclomycin]  MtbRho (transcription termination factor Rho) (Mycobacterium tuberculosis, UniProt P9WHF3)            3.80
